# Assayed system: P2X7 receptor (Homo sapiens)
# Construct: host or cells: THP-1 cells differentiated with LPS and IFN-γ
# Sequence (Q99572 1-595): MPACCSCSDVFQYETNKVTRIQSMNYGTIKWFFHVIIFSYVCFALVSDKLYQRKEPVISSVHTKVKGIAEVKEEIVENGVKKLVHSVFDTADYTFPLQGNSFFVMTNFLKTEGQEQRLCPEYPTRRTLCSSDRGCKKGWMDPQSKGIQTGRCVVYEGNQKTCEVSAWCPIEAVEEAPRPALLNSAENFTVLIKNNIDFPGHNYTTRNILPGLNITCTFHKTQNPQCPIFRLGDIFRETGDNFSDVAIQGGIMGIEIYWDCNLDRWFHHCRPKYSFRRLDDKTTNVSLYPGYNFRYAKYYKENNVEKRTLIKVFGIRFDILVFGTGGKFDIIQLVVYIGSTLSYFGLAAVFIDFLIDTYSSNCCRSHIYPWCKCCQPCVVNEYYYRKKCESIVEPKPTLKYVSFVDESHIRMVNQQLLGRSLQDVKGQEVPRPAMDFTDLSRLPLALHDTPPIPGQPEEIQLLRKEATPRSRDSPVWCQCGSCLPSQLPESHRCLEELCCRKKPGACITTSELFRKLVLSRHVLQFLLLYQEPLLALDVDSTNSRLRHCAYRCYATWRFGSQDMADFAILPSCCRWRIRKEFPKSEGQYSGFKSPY
# Assay remarks: Alternate method for IL-1β release assay (differentiated THP-1 cells, BzATP-stimulated, ELISA)
# Type: cell-based
# Test context: P2X7; at 0.03 μM (asterisk symbols); read-out: IL-1β % inhib @ 0.3 μM or @ 0.03 μM
Please respond with reported inhibition at 0.03 µM for every item in the list.

[[record]]
molecule = "C[C@H](N)C(=O)N1CCc2c(ncnc2NCC(O)C23CC4CC(CC(C4)C2)C3)C1 (stereo partly drawn) [Compound 713]"
experimental_readout = "inhibition at 0.03 µM"
test_result = "0 to 25%"


Please state, for each entry, its recorded inhibition at 0.03 µM.
1. CC(C)(C)OC(=O)NCC(=O)N1CCc2c(ncnc2NCC(O)C23CC4CC(CC(C4)C2)C3)C1 (stereo not drawn) [Compound 707]
2. C[C@H](NC(=O)OC(C)(C)C)C(=O)N1CCc2c(ncnc2NCC(O)C23CC4CC(CC(C4)C2)C3)C1 (stereo partly drawn) [Compound 708]
3. CC(C)(C)OC(=O)N[C@@H](Cc1ccccc1)C(=O)N1CCc2c(ncnc2NCC(O)C23CC4CC(CC(C4)C2)C3)C1 (stereo partly drawn) [Compound 709]

A.
1: 50 to 75%; 2: 50 to 75%; 3: 0 to 25%

Please state, for each entry, its recorded inhibition at 0.03 µM.
1. CC(C)(C)OC(=O)N[C@H](Cc1ccccc1)C(=O)N1CCc2c(ncnc2NCC(O)C23CC4CC(CC(C4)C2)C3)C1 (stereo partly drawn) [Compound 711]
2. C[C@@H](NC(=O)OC(C)(C)C)C(=O)N1CCc2c(ncnc2NCC(O)C23CC4CC(CC(C4)C2)C3)C1 (stereo partly drawn) [Compound 710]

A.
0 to 25%
0 to 25%

---

Please respond with reported inhibition at 0.3 µM for every item in the list.
# Assayed system: P2X7 receptor (Homo sapiens)
# Construct: host or cells: THP-1 cells differentiated with LPS and IFN-γ
# Assay remarks: Alternate method for IL-1β release assay (differentiated THP-1 cells, BzATP-stimulated, ELISA)
# Type: cell-based
# Test context: P2X7; 0.3 μM compound (asterisk symbols); read-out: IL-1β % inhib @ 0.3 μM

Reference set (3 entries):
[[record]]
structure_smiles = "O=S(=O)(c1ccc(F)cc1)N1CCc2c(ncnc2NCC23CC4CC(CC(C4)C2)C3)C1"
experimental_readout = "inhibition at 0.3 µM"
test_result = "25 to 50%"

[[record]]
structure_smiles = "Cc1ccc(C(=O)N2CCc3c(ncnc3NCC34CC5CC(CC(C5)C3)C4)C2)cc1"
experimental_readout = "inhibition at 0.3 µM"
test_result = "50 to 75%"

[[record]]
structure_smiles = "O=S(=O)(c1ccc2c(c1)OCCO2)N1CCc2c(ncnc2NCC23CC4CC(CC(C4)C2)C3)C1"
experimental_readout = "inhibition at 0.3 µM"
test_result = "50 to 75%"


Please state, for each entry, its recorded inhibition at 0.3 µM.
1. COc1cc(OC)cc(C(=O)N2CCc3c(ncnc3NCC34CC5CC(CC(C5)C3)C4)C2)c1
2. c1ccc2cc(CN3CCc4c(ncnc4NCC45CC6CC(CC(C6)C4)C5)C3)ccc2c1
3. O=S(=O)(c1ccc(F)c(Cl)c1)N1CCc2c(ncnc2NCC23CC4CC(CC(C4)C2)C3)C1
4. O=S(=O)(c1ccc(C(F)(F)F)cc1)N1CCc2c(ncnc2NCC23CC4CC(CC(C4)C2)C3)C1

A.
1. 0 to 25%
2. 0 to 25%
3. 50 to 75%
4. 0 to 25%

Please state, for each entry, its recorded inhibition at 0.3 µM.
1. CCCCCN1CCc2c(ncnc2NCC23CC4CC(CC(C4)C2)C3)C1
2. COc1ccc(CC(=O)N2CCc3c(ncnc3NCC34CC5CC(CC(C5)C3)C4)C2)cc1

A.
["> 75%", "> 75%"]

Please state, for each entry, its recorded inhibition at 0.3 µM.
1. c1nc2c(c(NCC34CC5CC(CC(C5)C3)C4)n1)CCN(Cc1ccc3c(c1)OCO3)C2
2. O=S(=O)(c1cccc2cccnc12)N1CCc2c(ncnc2NCC23CC4CC(CC(C4)C2)C3)C1
3. O=S(=O)(Cc1cc(Cl)cc(Cl)c1)N1CCc2c(ncnc2NCC23CC4CC(CC(C4)C2)C3)C1
4. CCc1ccc(C(=O)N2CCc3c(ncnc3NCC34CC5CC(CC(C5)C3)C4)C2)cc1
5. O=S(=O)(c1ccccc1Cl)N1CCc2c(ncnc2NCC23CC4CC(CC(C4)C2)C3)C1
6. O=S(=O)(Cc1ccc(Cl)cc1)N1CCc2c(ncnc2NCC23CC4CC(CC(C4)C2)C3)C1
7. O=S(=O)(Cc1cc(C(F)(F)F)cc(C(F)(F)F)c1)N1CCc2c(ncnc2NCC23CC4CC(CC(C4)C2)C3)C1

A.
25 to 50%
> 75%
25 to 50%
50 to 75%
> 75%
25 to 50%
0 to 25%

---

Please respond with reported inhibition at 0.1 µM for every item in the list.
# Assayed system: P2X7 receptor (Homo sapiens, UniProt Q99572)
# Construct: host or cells: THP-1 cells differentiated with LPS and IFN-γ
# Assay remarks: Alternate method for IL-1β release assay (differentiated THP-1 cells, BzATP-stimulated, ELISA)
# Type: cell-based
# Test context: P2X7; 0.1 μM compound (plus symbols); read-out: IL-1β % inhib @ 0.1 μM

Reference set (3 entries):
[[record]]
compound = "O=C(C1CC1)N1CCc2c(ncnc2NCC23CC4CC(CC(C4)C2)C3)C1 [Compound 115]"
experimental_readout = "inhibition at 0.1 µM"
test_result = "> 75%"

[[record]]
compound = "O=C(c1c(Cl)cccc1Cl)N1CCc2c(ncnc2NCC23CC4CC(CC(C4)C2)C3)C1 [Compound 75]"
experimental_readout = "inhibition at 0.1 µM"
test_result = "> 75%"

[[record]]
compound = "O=S(=O)(c1ccccc1F)N1CCc2c(ncnc2NCC23CC4CC(CC(C4)C2)C3)C1 [Compound 24]"
experimental_readout = "inhibition at 0.1 µM"
test_result = "> 75%"


Q. Look up inhibition at 0.1 µM for this compound: O=S(=O)(c1ccc(F)cc1F)N1CCc2c(ncnc2NCC23CC4CC(CC(C4)C2)C3)C1 [Compound 66]
A. 25 to 50%

---

Please respond with reported inhibition at 0.3 µM for every item in the list.
# Assayed system: P2X7 receptor (Homo sapiens)
# Construct: host or cells: THP-1 cells differentiated with LPS and IFN-γ
# Assay remarks: Alternate method for IL-1β release assay (differentiated THP-1 cells, BzATP-stimulated, ELISA)
# Type: cell-based
# Test context: P2X7; 0.3 μM compound (asterisk symbols); read-out: IL-1β % inhib @ 0.3 μM

[[record]]
compound = "Cc1noc(C)c1S(=O)(=O)N1CCc2c(ncnc2NCC23CC4CC(CC(C4)C2)C3)C1 [Compound 26]"
experimental_readout = "inhibition at 0.3 µM"
test_result = "50 to 75%"


Please state, for each entry, its recorded inhibition at 0.3 µM.
1. COc1ccc(CN2CCc3c(ncnc3NCC34CC5CC(CC(C5)C3)C4)C2)cc1 [Compound 173]
2. Cc1cc(C(=O)N2CCc3c(ncnc3NCC34CC5CC(CC(C5)C3)C4)C2)nn1C [Compound 139]
3. CC12CC3CC(C)(C1)CC(CNc1ncnc4c1CCN(Cc1ccccc1)C4)(C3)C2 [Compound 2]
4. O=C(c1ccccc1Cl)N1CCc2c(ncnc2NCC23CC4CC(CC(C4)C2)C3)C1 [Compound 147]

A.
0 to 25%
0 to 25%
0 to 25%
0 to 25%
